biological target: UniProt P41594; assay: Cell-based functional Ca2+ mobilization assay (FDSS), potentiation of glutamate EC20 response in H10H cell line; conditions: HEK cells transfected with human mGluR5 (H10H), presence of glutamate EC20; concentration in mol/L
Sequence (P41594 21-1180 isoform P41594-2 limits assumed): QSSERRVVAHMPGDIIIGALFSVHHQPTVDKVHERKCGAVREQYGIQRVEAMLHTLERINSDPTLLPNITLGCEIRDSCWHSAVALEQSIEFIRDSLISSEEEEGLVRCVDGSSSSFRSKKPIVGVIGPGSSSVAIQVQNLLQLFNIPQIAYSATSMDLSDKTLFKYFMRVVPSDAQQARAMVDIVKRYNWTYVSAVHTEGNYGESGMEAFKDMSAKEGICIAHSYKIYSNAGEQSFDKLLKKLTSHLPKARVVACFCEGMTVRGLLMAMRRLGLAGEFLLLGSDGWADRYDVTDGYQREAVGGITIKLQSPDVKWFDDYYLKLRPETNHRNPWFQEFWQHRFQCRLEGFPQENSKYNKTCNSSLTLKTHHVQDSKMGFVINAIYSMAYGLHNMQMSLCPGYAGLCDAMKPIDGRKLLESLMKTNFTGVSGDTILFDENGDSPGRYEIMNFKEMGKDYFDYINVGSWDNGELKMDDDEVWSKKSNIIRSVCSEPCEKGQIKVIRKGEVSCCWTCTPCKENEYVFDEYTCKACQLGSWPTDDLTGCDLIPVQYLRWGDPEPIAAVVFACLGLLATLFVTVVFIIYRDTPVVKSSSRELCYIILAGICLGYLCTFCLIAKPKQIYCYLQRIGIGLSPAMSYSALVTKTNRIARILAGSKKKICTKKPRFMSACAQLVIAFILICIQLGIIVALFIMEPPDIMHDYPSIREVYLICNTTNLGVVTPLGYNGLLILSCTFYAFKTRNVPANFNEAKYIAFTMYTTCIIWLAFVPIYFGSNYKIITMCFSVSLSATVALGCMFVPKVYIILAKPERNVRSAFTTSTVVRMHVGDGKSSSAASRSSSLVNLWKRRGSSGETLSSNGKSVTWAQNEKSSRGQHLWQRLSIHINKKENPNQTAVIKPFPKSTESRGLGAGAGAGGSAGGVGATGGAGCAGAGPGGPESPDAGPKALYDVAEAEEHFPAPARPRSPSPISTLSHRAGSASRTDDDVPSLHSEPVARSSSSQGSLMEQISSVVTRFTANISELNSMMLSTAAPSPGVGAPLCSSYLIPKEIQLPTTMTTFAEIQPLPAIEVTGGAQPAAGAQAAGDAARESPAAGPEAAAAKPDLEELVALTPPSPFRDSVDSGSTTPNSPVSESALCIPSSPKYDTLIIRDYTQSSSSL
QUANTITY KIND: pEC50

CC1(C)CN(C(=O)c2ccc(F)cc2)Cc2cc(COc3ccccc3)nn21 : 6.59
CC1Cn2nc(COc3ccccc3)cc2CN1C(=O)c1ccc(F)cc1 (stereo not drawn) [Compound 45] : 6.62
O=C(c1ccc(F)cc1F)N1CCn2nc(COc3cccc(F)c3)cc2C1 : 6.56
Cc1ncccc1C(=O)N1CCn2nc(COc3cccc(F)c3)cc2C1 : 5.53
O=C(c1c(F)cccc1F)N1CCn2nc(COc3ccccc3)cc2C1 : 6.53
CC1CN(C(=O)c2cccc(F)c2)Cc2cc(COc3ccccc3)nn21 (stereo not drawn) : 6.86
CC1Cn2nc(COc3ccccc3)cc2CN1C(=O)c1cccc(C#N)c1 (stereo not drawn) [Compound 50] : 6.36
O=C(c1cccc(F)c1F)N1CCn2nc(COc3ccccc3)cc2C1 : 6.39
